# Test system: 786-O
# Assay Details: Cytotoxicity assay (Version 2, automated, AC50) with/without neutrophil elastase
# Assay type: cell-based, human
# Stated Conditions: without (−) neutrophil elastase, Version 2, activity concentration at −50%

{"Compound": "CCCNC(=O)Nc1cccc(S(=O)(=O)Nc2cccc([C@@H](CC(=O)O)NC(=O)Nc3ccc(NC(=O)N(C)CCN(C)CCN(C)CC(=O)N[C@@H](CC(N)=O)C(=O)N4CCC[C@H]4C(=O)N[C@H](C(=O)N=[S@@](C)(=O)Cc4cc5cc(c4)OCCCCOc4cc(F)ccc4-c4nc(ncc4F)N5)C(C)C)cc3)c2)c1 [Compound 5]", "AC50": "> 1000 nM"}
{"Compound": "CCCNC(=O)Nc1cccc(S(=O)(=O)Nc2cccc([C@@H](CC(=O)[O-])NC(=O)Nc3ccc(NC(=O)NCCOCCOCCOCCC(=O)N[C@H](C(=O)N[C@@H](CCCNC(N)=O)C(=O)N=[S@@](C)(=O)Cc4cc5cc(c4)OCCCCOc4cc(F)ccc4-c4nc(ncc4F)N5)C(C)C)cc3)c2)c1.[Na+] [Compound 7]", "AC50": "11 to 100 nM"}
{"Compound": "CCCNC(=O)Nc1cccc(S(=O)(=O)Nc2cccc([C@@H](CC(=O)O)NC(=O)Nc3ccc(NC(=O)NCCOCCOCCOCCC(=O)N[C@@H](CC(=O)O)C(=O)N4CCC[C@H]4C(=O)N[C@H](C(=O)N=S(C)(=O)Cc4cccc(Nc5ncnc(-c6ccc(F)cc6OC)n5)c4)C(C)C)cc3)c2)c1 (relative stereo) [Compound 1]", "AC50": "> 1000 nM"}

---

# Test system: 786-O
# Assay Details: Cytotoxicity assay (Version 2, automated, AC50) with/without neutrophil elastase
# Format: cell-based, human
# Stated Conditions: without (−) neutrophil elastase, Version 2, activity concentration at −50%

{"Compound": "CCCNC(=O)Nc1cccc(S(=O)(=O)Nc2cccc([C@@H](CC(=O)O)NC(=O)Nc3ccc(NC(=O)NCCOCCOCCOCCC(=O)N[C@@H](CC(=O)O)C(=O)N4CCC[C@H]4C(=O)N[C@@H](C(=O)N=[S@@](C)(=O)Cc4cc5cc(c4)O[C@@H](C)CCOc4cc(F)ccc4-c4nc(ncc4F)N5)C(C)C)cc3)c2)c1 (relative stereo)", "AC50": "100 to 1000 nM"}
{"Compound": "CCCNC(=O)Nc1cccc(S(=O)(=O)Nc2cccc([C@H](CC(=O)O)NC(=O)Nc3ccc(NC(=O)NCCN(C)CCN(C)CCN(C)CC(=O)N[C@@H](CC(N)=O)C(=O)N4CCC[C@H]4C(=O)N[C@H](C(=O)N=[S@@](C)(=O)Cc4cc5cc(c4)OCCCCCNc4cc(ccc4F)-c4nc(ncc4F)N5)C(C)C)cc3)c2)c1 (relative stereo)", "AC50": "> 1000 nM"}
{"Compound": "CCCNC(=O)Nc1cccc(S(=O)(=O)Nc2cccc([C@@H](CC(=O)O)NC(=O)Nc3ccc(NC(=O)NCCOCCOCCOCCC(=O)N[C@@H](CC(=O)O)C(=O)N4CCC[C@H]4C(=O)N[C@H](C(=O)N=[S@](C)(=O)Cc4cc5nc(c4)O[C@@H](C)CCCCOc4cc(F)ccc4-c4cc(ncc4F)N5)C(C)C)cc3)c2)c1 (relative stereo)", "AC50": "> 1000 nM"}

The origin of these recorded values is patent US20240408222A1.
